All figures here come from patent US20250171434A1.

- Test system: PD1-ss+10aa/Gaussia Luciferase
- measurement protocol: Dox-Induced PD1-ss-Gluc Assay
- Type: cell-based
- test settings: Flp-In 293 T-REx cells, 24 hours with doxycycline; Table 1; read-out: 24 hr Dox Inducible PD1ssGluc 293FRT/TO: Mean IC50
readout name: IC50 (nM)

Known results for compounds:
compound: [2H]c1nc(/C=C/c2csc(NC(=O)c3cccn3Cc3ccnc(F)c3)n2)cn1C(C)C [Compound B21]
IC50 / nM: 65
--
compound: Cc1c(Cn2cc(OC(F)F)cc2C(=O)Nc2nc(/C=C/c3ncn(C4CC4)c3Cl)cs2)ccnc1F [Compound A23]
IC50 / nM: 37

A. Cc1nc(/C=C/c2csc(NC(=O)c3cccn3Cc3ccnc(F)c3)n2)ccc1C#N [Compound B14]
B. O=C(Nc1nc(/C=C/c2ncn(C3CC3)c2Cl)cs1)c1cc(SC(F)F)cn1Cc1ccnc(F)c1 [Compound A32]
Which of the two gives a bigger number for IC50: A or B ? Please indicate the selected item by its label.
A
